Entries annotated with measured IC50
# Measured on: AChE (Electrophorus electricus) (Electrophorus electricus, UniProt O42275)
# Sequence (O42275 24-633): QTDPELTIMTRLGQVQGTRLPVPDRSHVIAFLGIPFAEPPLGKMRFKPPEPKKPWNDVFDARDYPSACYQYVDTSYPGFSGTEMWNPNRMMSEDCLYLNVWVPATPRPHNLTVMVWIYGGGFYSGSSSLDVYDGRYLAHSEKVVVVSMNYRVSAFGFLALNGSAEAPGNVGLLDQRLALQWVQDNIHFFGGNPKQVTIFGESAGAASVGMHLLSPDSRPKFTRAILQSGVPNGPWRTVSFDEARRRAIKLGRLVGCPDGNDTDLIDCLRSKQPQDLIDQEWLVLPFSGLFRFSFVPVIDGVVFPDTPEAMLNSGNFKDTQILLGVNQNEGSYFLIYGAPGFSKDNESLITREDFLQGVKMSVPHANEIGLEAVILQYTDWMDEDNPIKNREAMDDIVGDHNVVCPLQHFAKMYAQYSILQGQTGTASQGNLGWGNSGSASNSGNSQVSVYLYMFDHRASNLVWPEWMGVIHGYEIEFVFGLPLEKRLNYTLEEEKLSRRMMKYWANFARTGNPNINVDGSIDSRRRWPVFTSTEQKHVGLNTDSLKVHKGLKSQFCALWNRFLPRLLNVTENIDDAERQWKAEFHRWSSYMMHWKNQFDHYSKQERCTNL
Respond numerically; units are µM and should not be typed.

Some compounds with known IC50 results, for comparison:
Answer briefly: IC50 recorded on AChE (Electrophorus electricus) (Electrophorus electricus, UniProt O42275) for N#C/C(=C\c1ccc(-c2ccc(Cl)cc2)o1)c1nc2ccccc2s1 [7g]
64

Answer briefly: IC50 recorded on AChE (Electrophorus electricus) (Electrophorus electricus, UniProt O42275) for N#C/C(=C\c1ncc[nH]1)c1nc2ccccc2s1 [7e]
303

Answer briefly: IC50 recorded on AChE (Electrophorus electricus) (Electrophorus electricus, UniProt O42275) for Cc1cc(/C=C(\C#N)c2nc3ccccc3s2)no1 [7a]
1270

Answer briefly: IC50 recorded on AChE (Electrophorus electricus) (Electrophorus electricus, UniProt O42275) for N#C/C(=C\c1ccc(N2CCOCC2)cc1)c1nc2ccccc2s1 [7d]
504

Answer briefly: IC50 recorded on AChE (Electrophorus electricus) (Electrophorus electricus, UniProt O42275) for N#C/C(=C\c1cc(-c2ccccc2)on1)c1nc2ccccc2s1 [7b]
1180

Further cases:
Answer briefly: IC50 recorded on AChE (Electrophorus electricus) (Electrophorus electricus, UniProt O42275) for N#C/C(=C\c1cc(-c2ccc(F)cc2)on1)c1nc2ccccc2s1 [7c]
699

====

The following are reported pIC50 results, target or system AChE (Electrophorus electricus) (Electrophorus electricus, UniProt O42275).
pIC50: −log10 of the molar value.

Some molecules with known pIC50 results, for comparison:
Answer briefly: pIC50 recorded on AChE (Electrophorus electricus) (Electrophorus electricus, UniProt O42275) for N#C/C(=C\c1ccc(-c2ccccc2)cc1)c1nc2ccccc2s1
< 2.83

Answer briefly: pIC50 recorded on AChE (Electrophorus electricus) (Electrophorus electricus, UniProt O42275) for N#C/C(=C\c1ccccn1)c1nc2ccccc2s1
< 2.72

Answer briefly: pIC50 recorded on AChE (Electrophorus electricus) (Electrophorus electricus, UniProt O42275) for N#C/C(=C\c1ccco1)c1nc2ccccc2s1
< 2.70

Query molecule follows.
Answer briefly: pIC50 recorded on AChE (Electrophorus electricus) (Electrophorus electricus, UniProt O42275) for Cc1nn(-c2ccccc2)c(Cl)c1/C=C(\C#N)c1nc2ccccc2s1
< 2.88

src = paper PMC6269038
